Test system: Leishmania donovani
Assay: Antileishmanial activity against axenic amastigotes of Leishmania donovani MHOM/SD/1962/1S-Cl2d […] assessed as parasite growth inhibition after 24 hrs by AlamarBlue viability assay
Type: functional, organism-based
test-readout: IC50 (µM)
I only need the number, in µM, no unit after it.

- smiles-notation: "CC(C)c1ccc2c(c1)CC[C@H]1[C@](C)(CNC(=O)c3ccc[nH]3)CCC[C@]21C"
  IC50 (µM): 3.2
- smiles-notation: "CC(C)c1ccc2c(c1)CC[C@H]1[C@](C)(CNC(=O)/C=C\\C(=O)O)CCC[C@]21C"
  IC50 (µM): 1.9
- smiles-notation: "C#CC(=O)NC[C@]1(C)CCC[C@]2(C)c3ccc(C(C)C)cc3CC[C@@H]12"
  IC50 (µM): 4.1
- smiles-notation: "C=CC(=O)NC[C@]1(C)CCC[C@]2(C)c3ccc(C(C)C)cc3CC[C@@H]12"
  IC50 (µM): 0.37
- smiles-notation: "CCCC(=O)NC[C@]1(C)CCC[C@]2(C)c3ccc(C(C)C)cc3CC[C@@H]12"
  IC50 (µM): 5.1

Next:
Enquiry: Quick one: give measured IC50 for `CC(=O)NC[C@]1(C)CCC[C@]2(C)c3ccc(C(C)C)cc3CC[C@@H]12`
Return: 2.4

====

selectivity ratio overview
Experiment: Selectivity index, ratio of IC50 for rat L6 cells to IC50 for Trypanosoma cruzi Tulahuen C2C4 amastigotes
Assay type: toxicity, cell-based
Settings: read-out: Ratio IC50
I'd appreciate a reply containing only the number, no unit.

Enquiry: Quick one: give measured selectivity ratio for `CC(=O)NC[C@]1(C)CCC[C@]2(C)c3ccc(C(C)C)cc3CC[C@@H]12`
Return: 6

Enquiry: Quick one: give measured selectivity ratio for `CC(C)c1ccc2c(c1)CC[C@H]1[C@](C)(CN)CCC[C@]21C`
Return: 1

Enquiry: Quick one: give measured selectivity ratio for `CC(C)c1ccc2c(c1)CC[C@H]1[C@](C)(CNC(=O)/C=C\C(=O)O)CCC[C@]21C`
Return: 4

Enquiry: Quick one: give measured selectivity ratio for `C=CC(=O)NC[C@]1(C)CCC[C@]2(C)c3ccc(C(C)C)cc3CC[C@@H]12`
Return: 58

====

System: Trypanosoma cruzi
Experiment: Antitrypanosomal activity against trypomastigote form of Trypanosoma cruzi Tulahuen C2C4 expressing LacZ gene infected in rat L6 cells after 96 hrs by photometric method
Format: functional, organism-based
Settings: Tulahuen C2C4, L6, 96 h
test-readout: IC50 (µM)
I only need the number, in µM, no unit after it.

Completed entries (count: 3):
- smiles-notation: "CC(=O)NC[C@]1(C)CCC[C@]2(C)c3ccc(C(C)C)cc3CC[C@@H]12"
  target-under-test: "Trypanosoma cruzi"
  test-readout: "IC50"
  value-observed: 3.7
- smiles-notation: "C=CC(=O)NC[C@]1(C)CCC[C@]2(C)c3ccc(C(C)C)cc3CC[C@@H]12"
  target-under-test: "Trypanosoma cruzi"
  test-readout: "IC50"
  value-observed: 0.6
- smiles-notation: "CC(C)c1ccc2c(c1)CC[C@H]1[C@](C)(CNC(=O)/C=C\\C(=O)O)CCC[C@]21C"
  target-under-test: "Trypanosoma cruzi"
  test-readout: "IC50"
  value-observed: 9.5

Enquiry: Find IC50 for `CC(C)c1ccc2c(c1)CC[C@H]1[C@](C)(CN)CCC[C@]21C` on Trypanosoma cruzi and write it down.
Return: 7.4

====

inhibition of growth at 50 µM overview
Tested on: Leishmania donovani
Assay: Antileishmanial activity against axenic amastigotes of Leishmania donovani MHOM/SD/1962/1S-Cl2d infected in human THP1 cells assessed as parasite growth inhibition at 50 uM after 24 hrs by AlamarBlue viability assay
Format: functional
Conditions: read-out: GI
I only need the number, in %, no unit after it.

- smiles-notation: "CC(C)c1ccc2c(c1)CC[C@H]1[C@](C)(CNC(=O)/C=C\\C(=O)O)CCC[C@]21C"
  inhibition of growth at 50 µM [%]: 98.8
- smiles-notation: "C#CC(=O)NC[C@]1(C)CCC[C@]2(C)c3ccc(C(C)C)cc3CC[C@@H]12"
  inhibition of growth at 50 µM [%]: 99.8

Enquiry: Quick one: give measured inhibition of growth at 50 µM for `CC(C)c1ccc2c(c1)CC[C@H]1[C@](C)(CN)CCC[C@]21C`
Return: 68.7

Enquiry: Quick one: give measured inhibition of growth at 50 µM for `CC(C)c1ccc2c(c1)CC[C@H]1[C@](C)(CNC(=O)/C=C/c3ccccc3)CCC[C@]21C`
Return: 42.4

Enquiry: Quick one: give measured inhibition of growth at 50 µM for `CC(=O)NC[C@]1(C)CCC[C@]2(C)c3ccc(C(C)C)cc3CC[C@@H]12`
Return: 98.5
